- tgt: Atrial natriuretic peptide receptor 1 (Homo sapiens) (UniProt P16066)
- Sequence (P16066 whole entry, looked up): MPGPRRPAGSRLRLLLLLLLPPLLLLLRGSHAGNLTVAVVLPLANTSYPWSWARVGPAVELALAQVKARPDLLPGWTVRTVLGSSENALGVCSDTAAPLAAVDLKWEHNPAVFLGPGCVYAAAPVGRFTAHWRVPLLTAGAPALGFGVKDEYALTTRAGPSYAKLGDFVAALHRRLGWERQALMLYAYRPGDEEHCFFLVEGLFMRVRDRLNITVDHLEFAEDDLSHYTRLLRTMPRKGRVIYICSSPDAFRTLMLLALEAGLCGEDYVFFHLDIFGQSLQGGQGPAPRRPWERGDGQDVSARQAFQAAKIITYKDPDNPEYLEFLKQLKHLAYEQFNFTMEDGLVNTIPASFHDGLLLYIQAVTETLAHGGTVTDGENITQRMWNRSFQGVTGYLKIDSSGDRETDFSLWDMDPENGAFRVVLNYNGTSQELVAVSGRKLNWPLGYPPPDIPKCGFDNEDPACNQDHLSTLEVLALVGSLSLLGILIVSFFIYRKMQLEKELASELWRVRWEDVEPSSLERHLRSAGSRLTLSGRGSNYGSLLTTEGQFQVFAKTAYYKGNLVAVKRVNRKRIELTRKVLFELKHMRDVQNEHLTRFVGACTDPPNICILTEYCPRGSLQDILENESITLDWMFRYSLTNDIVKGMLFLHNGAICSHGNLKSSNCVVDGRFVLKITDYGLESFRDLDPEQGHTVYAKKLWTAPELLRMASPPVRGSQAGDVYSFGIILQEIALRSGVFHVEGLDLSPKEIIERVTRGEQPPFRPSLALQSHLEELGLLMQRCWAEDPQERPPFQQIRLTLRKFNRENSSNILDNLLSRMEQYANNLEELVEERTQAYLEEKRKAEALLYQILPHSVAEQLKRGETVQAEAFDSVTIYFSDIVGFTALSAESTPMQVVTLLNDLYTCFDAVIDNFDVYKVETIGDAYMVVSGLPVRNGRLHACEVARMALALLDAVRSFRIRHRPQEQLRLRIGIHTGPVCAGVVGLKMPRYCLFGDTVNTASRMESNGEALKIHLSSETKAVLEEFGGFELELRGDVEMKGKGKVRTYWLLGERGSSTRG
- assay remarks: Natriuretic polypeptide receptor (hNpr1) antagonism - Primary qHTS; note: nearly all actives have a fitted effect of over 60% in size
- setup conditions: HEK293 hNpr1 GloSensor cGMP, ANP-stimulated luminescence; series mostly up to 46.3 µM
Out of some 76,000 compounds screened, about 1,200 (1.6%) were called active. Roughly 4% stayed inconclusive and do not appear here. Calls come from the whole dose curve. The sample holds actives, similar compounds and a random draw of the others, so the mix is not that of the screen.
Assign a class; possible classes are yes for active, no for inactive

Please review the following examples before continuing.
{"compound": "Cc1ccc2nc3n(c2c1)[C@@H](CNC(=O)COc1ccccc1)COC3", "discrete label": "no"}
{"compound": "O=C(c1cccc(F)c1)N1CCCC(CN2CCOCC2)CC1 (stereo not given)", "discrete label": "no"}
{"compound": "Cc1ccc2c(c1)nc1n2[C@@H](CNS(=O)(=O)c2ccccc2)COC1", "discrete label": "yes"}

q: Can you look up the reported call for O=C(c1cccc(F)c1)N1CCCC(c2nccn2Cc2cscn2)C1 (stereo not given) for me?
a: no

q: Thanks! And `Cc1ncsc1C(=O)N1CCc2c(n(Cc3ccccc3)n(-c3ccccc3)c2=O)C1` ?
a: no

q: Entry to check: COc1ccc(-c2cc(N3CCCC(NC(=O)c4cc(F)ccc4Cl)C3)n[nH]2)cc1 (stereo not given)
a: no

q: Please answer likewise for `CCCN1CC(Oc2ccc(-c3noc(C4CC4)n3)cc2)C1`
a: no

q: Also `COC(=O)N1CCCc2nc(C)nc(-c3ccc(O)cc3)c2C1` ?
a: no

q: How about this compound: `O=C(c1ccccc1)N1CCNc2cnc(Nc3cccc(C(F)(F)F)c3)nc2C1`
a: yes

q: Another compound: `CCN(CC)C(=O)[C@@H]1CCC[C@@H](NC2CCC2)CN(C)C(=O)C1`
a: no
